target: human androgen receptor (Homo sapiens, UniProt P10275, T878A); construct: endogenously expressed human androgen receptor using the LnCap prostate cancer cell line; endogenous in cells; experiment: Human Androgen Receptor Binding (radioligand binding, LnCap prostate cancer cell line); settings: LnCap cells, displacement of [^3H]-methyltrienolone, 2 hours at 37° C.; read-out: AR LNCaP
Sequence (P10275 whole entry T878A): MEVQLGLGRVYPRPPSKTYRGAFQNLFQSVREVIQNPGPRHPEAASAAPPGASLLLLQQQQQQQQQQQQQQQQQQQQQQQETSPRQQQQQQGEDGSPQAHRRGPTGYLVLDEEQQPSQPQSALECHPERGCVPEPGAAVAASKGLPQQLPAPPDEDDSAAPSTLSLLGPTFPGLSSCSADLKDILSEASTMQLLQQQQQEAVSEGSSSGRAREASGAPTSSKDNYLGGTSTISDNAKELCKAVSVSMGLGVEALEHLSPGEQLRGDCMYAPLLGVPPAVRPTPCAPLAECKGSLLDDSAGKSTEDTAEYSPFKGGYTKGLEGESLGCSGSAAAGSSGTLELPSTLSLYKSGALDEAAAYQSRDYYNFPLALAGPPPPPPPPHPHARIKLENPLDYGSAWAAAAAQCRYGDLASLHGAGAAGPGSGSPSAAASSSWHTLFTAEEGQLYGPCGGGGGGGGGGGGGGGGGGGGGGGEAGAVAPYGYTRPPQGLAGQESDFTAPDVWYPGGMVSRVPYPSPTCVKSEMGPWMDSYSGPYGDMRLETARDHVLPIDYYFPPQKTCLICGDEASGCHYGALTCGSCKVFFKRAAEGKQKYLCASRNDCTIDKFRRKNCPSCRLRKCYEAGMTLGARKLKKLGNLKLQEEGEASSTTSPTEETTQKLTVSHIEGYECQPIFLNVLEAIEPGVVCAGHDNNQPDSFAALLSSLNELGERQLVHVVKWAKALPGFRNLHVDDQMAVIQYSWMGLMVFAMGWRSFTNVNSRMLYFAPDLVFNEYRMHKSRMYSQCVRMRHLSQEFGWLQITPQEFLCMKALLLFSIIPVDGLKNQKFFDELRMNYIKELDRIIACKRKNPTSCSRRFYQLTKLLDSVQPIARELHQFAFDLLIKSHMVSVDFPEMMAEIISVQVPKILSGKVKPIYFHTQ
Observation Type: IC50

// below: answered molecules
{"Molecule": "CC(=O)C1=C(C)NC(C)=C(C(=O)OCc2ccc(-c3ccncc3)cc2)C1c1csc2ncccc12 (centres unmarked) [Example L1]", "IC50": "≥ 1000 nM"}
{"Molecule": "COC(=O)C1=C(C(F)(F)F)NC(C)=C(C(C)=O)C1c1csc2ccc(Cl)cc12 (centres unmarked) [Example C38]", "IC50": "< 100 nM"}
{"Molecule": "COC(=O)C1=C(C2CC2)NC(C)=C(C(C)=O)C1c1csc2ncccc12 (centres unmarked) [Example J23]", "IC50": "< 100 nM"}
{"Molecule": "CC(=O)C1=C(C)NC(C)=C(C(=O)OCc2cccnc2)C1c1csc2c(Br)cccc12 (centres unmarked) [Example C58]", "IC50": "< 100 nM"}

Next, consider the following molecule.
Please tell me: IC50 of COC(=O)C1=C(C2CC2)NC(C)=C(C(C)=O)C1c1csc2c(C(=O)O)cccc12 (centres unmarked) [Example J30] , system human androgen receptor (Homo sapiens, UniProt P10275, T878A)?
≥ 1000 nM

Sourced from patent US11453660B2
